Assign A405+ to each entry below.
# MEASURED TARGET: T1, human Her2 (ECD)-Fc protein (human, UniProt P04626 23-652)
# T1 construct: extracellular domain; Made in HEK293F cells; also called hHer2 (ECD)-Fc antigen; Her2 (ECD)-Fc antigen; not shown: TEV restriction site at the C-terminal of hHer2 (ECD); IgG1 Fc of the pFUSE-IgG1 vector
# MEASUREMENT DESCRIPTION: PE-ELISA, crude extract on antigen-coated plate
Numbers only, in A405.

For orientation, consider the following solved cases.
>  <BINDER>
Nanobody No. 3 (VHH, not shown: tags (HA, His) implied by anti-HA detection and nickel column) VHH: QVQLQESGGGSVQAGGSLRLSCTASGFTFDDSDVRWYRQAPGRECKLVSSISSDRSAYYEDSVKGRFTISQDNAKNTVYLQMNSLKPEDTAVYYCAAHPLHYELGTCAALDYWGRGTQVTVSS

>  <UNIT ABBREVIATION>
A405

>  <EXPERIMENTAL VALUE>
1.31

$$$$
>  <BINDER>
Nanobody No. 22 (VHH, camel VHH from pMECs phage display vector; also called Antibody no; 22; not shown: tags (HA, His) implied by anti-HA detection and nickel column) VHH: QVQLQESGGGSVQAGGSLRLSCTASGFTFDDSDMGWYRQAPGNECELVSRISRDGTTYYADSVKGRFTISQDNAKNTVYLQMNSLKPEDTAVYYCADINSGYELGTCESLDYWGRGTQVTVSS

>  <UNIT ABBREVIATION>
A405

>  <EXPERIMENTAL VALUE>
1.78

$$$$
>  <BINDER>
Nanobody No. 26 (VHH, camel VHH from pMECs phage display vector; also called Antibody no; 26; not shown: tags (HA, His) implied by anti-HA detection and nickel column) VHH: QVQLQESGGGSVQAGETLRLSCTASGFTFDDSDMGWYRQAPGNECELVSSISSDGSTYYADSVKGRFTISQDNAKNTVYLQMNSLKPEDTGVYYCAAEGHRYELGTCAALDYWGRGTQVTVSS

>  <UNIT ABBREVIATION>
A405

>  <EXPERIMENTAL VALUE>
1.9

$$$$

Query binder follows.
stdin: Name the recorded A405+ for Nanobody No. 28 (VHH, also called 28; not shown: tags (HA, His) implied by anti-HA detection and nickel column) VHH: QVQLQESGGGLVQPGGSLRLSCAASGFTFGDSGMGWYRQAPGNECELVSSVSSDGSTYYADSVKGRFTISQDNAKNTVYLRMNSLKPEDTAVYYCAADDHKYELGTCEALDYWGRGTQVTVSS .
stdout: 1.86
